pIC50: −log10 of the molar value.
Entries below carry reported pIC50 on Tyrosine-protein kinase BTK (Homo sapiens, UniProt Q06187).
Sequence (Q06187 whole entry): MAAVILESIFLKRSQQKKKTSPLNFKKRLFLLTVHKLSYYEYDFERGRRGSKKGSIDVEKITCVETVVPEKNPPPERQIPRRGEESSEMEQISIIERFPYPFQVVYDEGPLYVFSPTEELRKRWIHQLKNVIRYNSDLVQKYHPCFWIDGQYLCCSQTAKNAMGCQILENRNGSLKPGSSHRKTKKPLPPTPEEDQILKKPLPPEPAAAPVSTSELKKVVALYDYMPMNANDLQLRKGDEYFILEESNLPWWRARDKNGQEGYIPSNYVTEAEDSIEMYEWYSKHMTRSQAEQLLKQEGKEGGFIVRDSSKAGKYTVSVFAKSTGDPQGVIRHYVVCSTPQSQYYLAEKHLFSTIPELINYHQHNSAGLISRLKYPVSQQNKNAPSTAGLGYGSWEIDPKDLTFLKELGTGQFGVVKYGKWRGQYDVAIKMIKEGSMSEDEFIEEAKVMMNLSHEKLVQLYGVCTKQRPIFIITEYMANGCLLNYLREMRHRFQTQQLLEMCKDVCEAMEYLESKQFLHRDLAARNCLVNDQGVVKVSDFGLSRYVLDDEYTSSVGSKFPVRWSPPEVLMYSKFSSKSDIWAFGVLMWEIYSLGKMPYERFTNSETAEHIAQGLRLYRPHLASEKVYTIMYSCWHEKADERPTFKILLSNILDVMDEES
metric name: pIC50

(A) CNC(=O)[C@H]1Cc2c([nH]c3ccccc23)CN1C(=O)c1occc1CNc1ccc2nccnc2c1 [BTK inhibitor, 3]
(B) CNC(=O)Cc1cccc(NC(=O)c2n[nH]cc2CNc2ccccc2[C@H](O)c2ccccc2)c1 [BTK inhibitor, 2]
Query :: I'd appreciate it if you could identify which of A and B has the greater pIC50. Please reply using the label of the selected record.
Result :: A
(A: 9.26, B: 6.68)
